// data source = patent US20250051355A1

Below is a list of entries, each paired with its recorded EC50 value.
# assayed.system: human calcitonin receptor (CTR) (Homo sapiens)
# Sequence (P30988 25-474): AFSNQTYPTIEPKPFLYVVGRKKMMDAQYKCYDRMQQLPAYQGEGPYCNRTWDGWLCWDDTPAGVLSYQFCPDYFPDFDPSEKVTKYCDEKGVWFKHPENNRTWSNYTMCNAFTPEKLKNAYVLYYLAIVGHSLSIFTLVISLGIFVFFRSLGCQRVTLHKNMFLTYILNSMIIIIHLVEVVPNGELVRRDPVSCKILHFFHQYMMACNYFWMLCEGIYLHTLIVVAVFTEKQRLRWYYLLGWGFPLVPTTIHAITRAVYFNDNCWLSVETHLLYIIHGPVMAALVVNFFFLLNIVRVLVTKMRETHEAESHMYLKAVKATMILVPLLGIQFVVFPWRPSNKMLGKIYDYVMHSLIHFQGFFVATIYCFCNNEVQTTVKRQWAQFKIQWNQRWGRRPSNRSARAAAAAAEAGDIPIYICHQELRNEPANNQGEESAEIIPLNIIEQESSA
# procedure.details: Calcitonin receptor (CTR) cAMP Assay
# study.conditions: COS7-human CTR Clone #2 cells, cAMP dynamic 2 kit; read-out: Calcitonin Receptor cAMP Stimulation Activity: EC50
Please reply with the bare figure in nM and do not write the unit itself.

Cc1noc(-c2c(CCC3CCOCC3)nc3c(c2-c2cc4ccnc(N[C@@H]5CCc6ncccc65)c4s2)S(=O)(=O)CC3C(C)C)n1 (stereo partly drawn) [Compound 102]: 50
Cc1nnc(-c2c(CCC3CCOCC3)nc3c(c2-c2ccc4c(c2)oc(=O)n4C(C)c2ccc(C#N)c(F)c2)c(=O)n2n3CCC2)o1 (stereo not drawn) [Compound 114]: 4.15

Ask | Can you share its EC50? I mean this compound: Cc1nnc(-c2c(CCC3CCOCC3)nc3c(c2-c2cc4ccnc(N[C@@H]5CCc6ncccc65)c4s2)C(=O)N[C@H]3C(C)C)o1 [Compound 76]
Reply | 71
